- ASSAYED TARGET: OsWRKY34 (Oryza sativa, UniProt Q0JBA9 1-250)
- Sequence (Q0JBA9 entry or part of it): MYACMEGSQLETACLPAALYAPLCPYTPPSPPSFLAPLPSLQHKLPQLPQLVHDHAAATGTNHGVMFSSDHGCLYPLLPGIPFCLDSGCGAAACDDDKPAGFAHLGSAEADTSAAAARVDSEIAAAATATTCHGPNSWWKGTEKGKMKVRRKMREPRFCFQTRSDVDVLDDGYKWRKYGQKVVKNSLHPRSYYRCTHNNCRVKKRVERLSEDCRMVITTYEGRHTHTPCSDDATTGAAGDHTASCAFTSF
- TEST: protein-binding microarray (RPBM); PBS, 2% BSA, 51.3 ng/ul salmon testes DNA, 50 uM zinc acetate, 200 nM TF, 25 C, 1 h; high values mean tight binding
- CONDITION SUMMARY: protein: recombinant; tags: N-terminal polyhistidine and DsRed monomer fusion (pET32a); label: CyDye5-dUTP incorporated in the synthesized complementary strand; 3' TTTTT single-stranded linker to array surface; dsDNA, one strand shown
In all, about 68,000 sequences were measured (“fluorescence intensity (a.u.)”: median about 9,100, highest 2% from about 16,000 on). What follows is part of a selection rich in the highest values, with near analogues and random picks from the rest.
Item-by-item account of binding signal
VALUE TYPE: binding signal

INSERT INTO assay_data (seq, value_type, measured_value) VALUES
  ('GTCAACTGCCTATCCTAGATATCTATCACTACCGAAAGCCCGGAGTCACCTAGTGCAG', 'binding signal', '8930 fluorescence intensity (a.u.)'),
  ('TCAAACCTCGCGACTTCTTCTTCCACCTCTCGCTCCGGGCCGGAGTCACCTAGTGCAG', 'binding signal', '11800 fluorescence intensity (a.u.)'),
  ('GTGTGGGGCTTTTAACTTTTTGTCACTTTTAAATTTTAAACGGAGTCACCTAGTGCAG', 'binding signal', '21300 fluorescence intensity (a.u.)'),
  ('CGTGCCGCCGCCGCCGCCGCCATCCTCCGGCAACAACGGCCGGAGTCACCTAGTGCAG', 'binding signal', '9650 fluorescence intensity (a.u.)'),
  ('CATGGGCTAATGTCCTTTTTTTATATATTTTTTTTGCCCTCGGAGTCACCTAGTGCAG', 'binding signal', '8990 fluorescence intensity (a.u.)');

---

- ASSAYED TARGET: OsWRKY34 (Oryza sativa, UniProt Q0JBA9 1-250)
- TEST: protein-binding microarray (RPBM); PBS, 2% BSA, 51.3 ng/ul salmon testes DNA, 50 uM zinc acetate, 200 nM TF, 25 C, 1 h; high values mean tight binding
- CONDITION SUMMARY: protein: recombinant; tags: N-terminal polyhistidine and DsRed monomer fusion (pET32a); label: CyDye5-dUTP incorporated in the synthesized complementary strand; 3' TTTTT single-stranded linker to array surface; dsDNA, one strand shown
Over roughly 68,000 sequences, “fluorescence intensity (a.u.)” has its median near 9,100; the highest 2% begin near 16,000. Many of the other results were omitted from the sample, so the highest values are more common in it than they were.
Entries and their measured binding signal follow.
VALUE TYPE: binding signal

INSERT INTO results (seq, value_type, measured_value) VALUES
  ('TCACGCATCGGCGCCGCCCTCCGGCCAGCAGCGACTCGCCCGGAGTCACCTAGTGCAG', 'binding signal', '44600 fluorescence intensity (a.u.)'),
  ('CACTAATTGATCAATTGCACAACAAATTGCTTGAATAACGCGGAGTCACCTAGTGCAG', 'binding signal', '65500 fluorescence intensity (a.u.)'),
  ('TGTGCCCGCTGCGCCAAGGGCTACGCCGTCCAGTCCGACTCGGAGTCACCTAGTGCAG', 'binding signal', '48500 fluorescence intensity (a.u.)'),
  ('AATATTCGACGCCGTTCACTTTTTTAAATATGTTTGACCACGGAGTCACCTAGTGCAG', 'binding signal', '9820 fluorescence intensity (a.u.)'),
  ('CATGTCCAACTTTAATTGTTCGTCTTTTTTTTGAAAAAACCGGAGTCACCTAGTGCAG', 'binding signal', '8630 fluorescence intensity (a.u.)'),
  ('CCATATCGTTTTGACGTTTTTAGTGTAGGTCAATTTATAGCGGAGTCACCTAGTGCAG', 'binding signal', '8170 fluorescence intensity (a.u.)'),
  ('TTGGTTGGTTGGTTTGGTGGGCGGCGGTGCCGGAGGAAGACGGAGTCACCTAGTGCAG', 'binding signal', '21900 fluorescence intensity (a.u.)'),
  ('TCTTGTGCAGGGGTTGATTTTTCAGTGTATAGGGGTATGACGGAGTCACCTAGTGCAG', 'binding signal', '16800 fluorescence intensity (a.u.)'),
  ('AGCTGGTCATATTCTATGTTGATTATCTTCATGGTATGAACGGAGTCACCTAGTGCAG', 'binding signal', '9730 fluorescence intensity (a.u.)'),
  ('AGATGACGCCGTTGACTTTTTATCACATGTTTAACCATTCCGGAGTCACCTAGTGCAG', 'binding signal', '42300 fluorescence intensity (a.u.)'),
  ('CCGTGGGCCAGACCTTTTTCTTCGACGCTAGACCTGACTACGGAGTCACCTAGTGCAG', 'binding signal', '9780 fluorescence intensity (a.u.)'),
  ('CACACGCTACCCCGACTCGTCGCCTTCGCCTTGCTCGTCTCGGAGTCACCTAGTGCAG', 'binding signal', '18000 fluorescence intensity (a.u.)'),
  ('ATGTACGACGCTATTGACTTTTTAACCAACGTTTGACTATCGGAGTCACCTAGTGCAG', 'binding signal', '11000 fluorescence intensity (a.u.)'),
  ('AATGTATGACGCCGTTGACTTTTTGACCAACGTTTGACTACGGAGTCACCTAGTGCAG', 'binding signal', '36100 fluorescence intensity (a.u.)'),
  ('ATCAACCATGAACCATCCGCGCCCGCGCACCTCCTCCTCTCGGAGTCACCTAGTGCAG', 'binding signal', '8100 fluorescence intensity (a.u.)'),
  ('CTCGTGCTGCTTCCACCCCTCCCTCGTCGCCTTGCCAGTTCGGAGTCACCTAGTGCAG', 'binding signal', '9440 fluorescence intensity (a.u.)'),
  ('CTCCCGCCGCGACTCGCCGCCGCGCGCGGCATCTCCGGCCCGGAGTCACCTAGTGCAG', 'binding signal', '8820 fluorescence intensity (a.u.)'),
  ('CCTGATCGCCTCCTCCGCCACCGCCGTGTTCGATTCGTCTCGGAGTCACCTAGTGCAG', 'binding signal', '9670 fluorescence intensity (a.u.)'),
  ('GGCCACGCCCGCCTCCGCGATCGTCCTCGCCGGCGACTGCCGGAGTCACCTAGTGCAG', 'binding signal', '8410 fluorescence intensity (a.u.)'),
  ('GCGGCGAAGCAGGGAGGAGGGAGGAGGAGGGGCGGCGGTGCGGAGTCACCTAGTGCAG', 'binding signal', '12100 fluorescence intensity (a.u.)'),
  ('GATCAAACGTTGGTTAAAAAGTCAACGGCGTCATACATTACGGAGTCACCTAGTGCAG', 'binding signal', '10700 fluorescence intensity (a.u.)'),
  ('TGACAGTGTGATGTGCTTGTTCGCTCTGATTTGATTTTGGCGGAGTCACCTAGTGCAG', 'binding signal', '8050 fluorescence intensity (a.u.)'),
  ('ATGATCATAGCCATTTTTCCTCGCTTTAAATATTTGCTACCGGAGTCACCTAGTGCAG', 'binding signal', '8490 fluorescence intensity (a.u.)'),
  ('CCCCGCCGTCCGCGCCGACCGCGACCTGCGCTACGCCGCCCGGAGTCACCTAGTGCAG', 'binding signal', '8450 fluorescence intensity (a.u.)'),
  ('TTCTGATATCTGGTCATATTTTTTTGAACAGGTAGCTATTCGGAGTCACCTAGTGCAG', 'binding signal', '27000 fluorescence intensity (a.u.)'),
  ('GCTGTCGTCCCTGCTGTTCTTGGTGTGCTTCTTCACTGTCCGGAGTCACCTAGTGCAG', 'binding signal', '13600 fluorescence intensity (a.u.)'),
  ('TGCAGGCTTCCACCGCCCGCCTGTCATTGTCGCCCACTGCCGGAGTCACCTAGTGCAG', 'binding signal', '8760 fluorescence intensity (a.u.)'),
  ('ACTATTACTACCTCAGTTTTGAAATGTATGACGTTGACTTCGGAGTCACCTAGTGCAG', 'binding signal', '11000 fluorescence intensity (a.u.)'),
  ('TCAACCATAATCACTAGTGTCACAAACACCTTGAAATTCACGGAGTCACCTAGTGCAG', 'binding signal', '8120 fluorescence intensity (a.u.)'),
  ('AGATTACGCCGTTAACTTTTTCTCACATGTTTGACCATTCCGGAGTCACCTAGTGCAG', 'binding signal', '11000 fluorescence intensity (a.u.)'),
  ('CAGCGACGGTGGGGAGGTGGGCGTGGGCGGTTGCCGGCGGCGGAGTCACCTAGTGCAG', 'binding signal', '11200 fluorescence intensity (a.u.)'),
  ('AAACGCTATTGACTTTTTTTATAAATGTATGACCATTCGTCGGAGTCACCTAGTGCAG', 'binding signal', '10400 fluorescence intensity (a.u.)'),
  ('TAGTCCACCTTTTATTACCCAAGTTTCAATTTGGACCACCCGGAGTCACCTAGTGCAG', 'binding signal', '9740 fluorescence intensity (a.u.)'),
  ('GGAGGGGCGGCGATCGAGCAGAGCAGGGGAGGGAATCCTGCGGAGTCACCTAGTGCAG', 'binding signal', '8310 fluorescence intensity (a.u.)'),
  ('ATCTGGTCTGCAGGTATTTTCTTTGTATTGTATATTTCTACGGAGTCACCTAGTGCAG', 'binding signal', '10000 fluorescence intensity (a.u.)'),
  ('GGGCGGAGAGTTGGGGTTTGGGTTGGTGGCGGTGGGCCGGCGGAGTCACCTAGTGCAG', 'binding signal', '14800 fluorescence intensity (a.u.)'),
  ('TGTCCAGTCGTCACCCTGCTGCTTCCCTGCCACTGCCCTACGGAGTCACCTAGTGCAG', 'binding signal', '17000 fluorescence intensity (a.u.)');
